B1: POU domain, class 2, transcription factor 1, residues 285 to 354; numbered along this chain, P14859 (parent)
chain: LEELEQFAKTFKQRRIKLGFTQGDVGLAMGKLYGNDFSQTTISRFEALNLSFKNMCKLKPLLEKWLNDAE

- Variants of: B1
- EXPERIMENTAL_PROTOCOL: abundance fitness (aPCA) (normalised: wild type 0, dead -1); higher = more abundant; growth selection in yeast, the domain comes from the species named
- TEST_CONTEXT: Homo sapiens

MUTATIONS	abundance fitness
M55H	-0.247
L18Y	-0.041
L32Q	-0.012
L66F	-0.258
T40E	-0.354
D36S	-0.05
T40L	-0.001
L62V	-0.102
T10S	-0.027

Source: the Human Domainome abundance scans (Beltran et al. 2025)
